Entry source: the supplement of paper PMC11061612

- System: SK-N-DZ (Neuroblastoma)
- test details: combination Emax (second highest fraction inhibited in the dose matrix, 72 h); higher = more inhibition; extreme values may be limits of the assay

compound	combination Emax
CN(C)CCCOc1ccc(-c2ccc3ncc4c(c3c2)n(C2CCOCC2)c(=O)n4C)cn1 [AZD0156] + C=CCn1c(=O)c2cnc(Nc3ccc(N4CCN(C)CC4)cc3)nc2n1-c1cccc(C(C)(C)O)n1 [AZD1775] (first compound max 1 µM, partner max 1 µM)	0.962
CC1(C)CCC(CN2CCN(c3ccc(C(=O)NS(=O)(=O)c4ccc(NCC5CCOCC5)c([N+](=O)[O-])c4)c(Oc4cnc5[nH]ccc5c4)c3)CC2)=C(c2ccc(Cl)cc2)C1 [Venetoclax] + Cc1cc2ncnn2cc1Nc1ncc2c(n1)n(C1CCOCC1)c(=O)n2C [AZD7648] (first compound max 1 µM, 7x7, partner max 10 µM)	0.399
CC1(C)CCC(CN2CCN(c3ccc(C(=O)NS(=O)(=O)c4ccc(NCC5CCOCC5)c([N+](=O)[O-])c4)c(Oc4cnc5[nH]ccc5c4)c3)CC2)=C(c2ccc(Cl)cc2)C1 [Venetoclax] + C1CN(CCC1(C(=O)N[C@@H](CCO)C2=CC=C(C=C2)Cl)N)C3=NC=NC4=C3C=CN4 [Capivasertib] (first compound max 1 µM, 7x7, partner max 3 µM)	0.307
COc1nnc2ccc(N3CCC(c4ccc(OCCN5CCN(C)C(=O)[C@H]5C)cc4)CC3)nn12 [AZD5153] + CCN(CCO)CCCOc1ccc2c(Nc3cc(CC(=O)Nc4cccc(F)c4)[nH]n3)ncnc2c1 [AZD2811] (first compound max 1 µM, 7x7, partner max 1 µM)	0.8
CN(C)CCCOc1ccc(-c2ccc3ncc4c(c3c2)n(C2CCOCC2)c(=O)n4C)cn1 [AZD0156] + O=C(c1cc(Cc2n[nH]c(=O)c3ccccc23)ccc1F)N1CCN(C(=O)C2CC2)CC1 [Olaparib] (first compound max 3 µM, partner max 3 µM)	0.373
COc1nnc2ccc(N3CCC(c4ccc(OCCN5CCN(C)C(=O)[C@H]5C)cc4)CC3)nn12 [AZD5153] + Cn1cnc2c(F)c(Nc3ccc(Br)cc3Cl)c(C(=O)NOCCO)cc21 [Selumetinib] (first compound max 1 µM, 7x7, partner max 10 µM)	0.703

* * *

- System: SCC90 (Head and Neck Carcinoma)
- test details: Bliss excess, mean over the matrix (fraction); higher = more synergy
parameter measured: Bliss excess

molecule	numeric result
C[C@@H](c1ccc2nccn2c1)n1nnc2ncc(-c3cnn(C)c3)nc21 [Savolitinib] + CC1(C)CCC(CN2CCN(c3ccc(C(=O)NS(=O)(=O)c4ccc(NCC5CCOCC5)c([N+](=O)[O-])c4)c(Oc4cnc5[nH]ccc5c4)c3)CC2)=C(c2ccc(Cl)cc2)C1 [Venetoclax] (first compound max 1 µM, 7x7, partner max 1 µM)	-0.0192
CN(C)CCCOc1ccc(-c2ccc3ncc4c(c3c2)n(C2CCOCC2)c(=O)n4C)cn1 [AZD0156] + C=CCn1c(=O)c2cnc(Nc3ccc(N4CCN(C)CC4)cc3)nc2n1-c1cccc(C(C)(C)O)n1 [AZD1775] (first compound max 1 µM, partner max 1 µM)	-0.0542
CS(=O)(=O)CCNCc1ccc(-c2ccc3ncnc(Nc4ccc(OCc5cccc(F)c5)c(Cl)c4)c3c2)o1 [Lapatinib] + C[C@@H](Oc1cc(-c2cnn(C3CCNCC3)c2)cnc1N)c1c(Cl)ccc(F)c1Cl [Crizotinib] (first compound max 10 µM, 7x7, partner max 10 µM)	0.0827
COc1cccc2c1C(=O)c1c(O)c3c(c(O)c1C2=O)C[C@@](O)(C(=O)CO)C[C@@H]3O[C@H]1C[C@H](N)[C@H](O)[C@H](C)O1 [Doxorubicin] + Cc1cc2ncnn2cc1Nc1ncc2c(n1)n(C1CCOCC1)c(=O)n2C [AZD7648] (first compound max 1 µM, 7x7, partner max 10 µM)	-0.0226
COc1nnc2ccc(N3CCC(c4ccc(OCCN5CCN(C)C(=O)[C@H]5C)cc4)CC3)nn12 [AZD5153] + CN(CC[C@H](CSC1=CC=CC=C1)NC2=C(C=C(C=C2)S(=O)(=O)NC(=O)C3=CC=C(C=C3)N4CCC(CC4)[C@H](C5=CC=CC=C5C6=CC=C(C=C6)Cl)O)S(=O)(=O)C(F)(F)F)CCO [AZD4320] (first compound max 1 µM, 7x7, partner max 1 µM)	0.021
CC1(C)CCC(CN2CCN(c3ccc(C(=O)NS(=O)(=O)c4ccc(NCC5CCOCC5)c([N+](=O)[O-])c4)c(Oc4cnc5[nH]ccc5c4)c3)CC2)=C(c2ccc(Cl)cc2)C1 [Venetoclax] + C[C@@H](Nc1cc(F)cc(F)c1)c1cc(C(=O)N(C)C)cc2c(=O)cc(N3CCOCC3)oc12 [AZD8186] (first compound max 1 µM, 7x7, partner max 3 µM)	0.048
Cc1c2c(nn1C)CSCc1cc(n(C)n1)CSc1cc(c3ccccc3c1)OCCCc1c(C(=O)O)n(C)c3c-2c(Cl)ccc13 [AZD5991] + C=CCn1c(=O)c2cnc(Nc3ccc(N4CCN(C)CC4)cc3)nc2n1-c1cccc(C(C)(C)O)n1 [AZD1775] (first compound max 1 µM, partner max 1 µM)	-0.0001
COc1cc2c(cc1OCCCCCOc1cc3c(cc1OC)C(=O)N1C=C(C)C[C@H]1C=N3)N=C[C@@H]1CC(C)=CN1C2=O [SG3199] + O=C(c1cc(Cc2n[nH]c(=O)c3ccccc23)ccc1F)N1CCN(C(=O)C2CC2)CC1 [Olaparib] (first compound max 0.001 µM, 7x7, partner max 10 µM)	-0.0461
CCN(CCO)CCCOc1ccc2c(Nc3cc(CC(=O)Nc4cccc(F)c4)[nH]n3)ncnc2c1 [AZD2811] + C[C@@H]1COCCN1C2=NC(=NC(=C2)C3(CC3)[S@](=N)(=O)C)C4=C5C=CNC5=NC=C4 [AZD6738] (first compound max 1 µM, 7x7, partner max 10 µM)	0.019
CN(CCO)CC[C@H](CSc1ccccc1)Nc1ccc(S(=O)(=O)NC(=O)c2ccc(N3CCC([C@@H](O)c4ccccc4-c4ccc(Cl)cc4)CC3)cc2)cc1S(=O)(=O)C(F)(F)F [AZD4320] + Cc1cc2ncnn2cc1Nc1ncc2c(n1)n(C1CCOCC1)c(=O)n2C [AZD7648] (first compound max 1 µM, 7x7, partner max 10 µM)	0.0682
Cc1c2c(nn1C)CSCc1cc(n(C)n1)CSc1cc(c3ccccc3c1)OCCCc1c(C(=O)O)n(C)c3c-2c(Cl)ccc13 [AZD5991] + C[C@@H]1COCCN1C2=NC(=NC(=C2)C3(CC3)[S@](=N)(=O)C)C4=C5C=CNC5=NC=C4 [AZD6738] (first compound max 1 µM, 7x7, partner max 10 µM)	0.0141
COc1nnc2ccc(N3CCC(c4ccc(OCCN5CCN(C)C(=O)[C@H]5C)cc4)CC3)nn12 [AZD5153] + C[C@@H]1COCCN1C2=NC(=NC(=C2)C3(CC3)[S@](=N)(=O)C)C4=C5C=CNC5=NC=C4 [AZD6738] (first compound max 1 µM, 7x7, partner max 10 µM)	0.0164
NC1(C(=O)N[C@@H](CCO)c2ccc(Cl)cc2)CCN(c2ncnc3[nH]ccc23)CC1 [Capivasertib] + CC(=O)c1c(C)c2cnc(Nc3ccc(N4CCNCC4)cn3)nc2n(C2CCCC2)c1=O [Palbociclib] (first compound max 10 µM, 7x7, partner max 10 µM)	-0.0256

* * *

The reader will find reported Bliss excess values listed item by item below.
- System: SBC-3 (Small Cell Lung Carcinoma)
- test details: Bliss excess, mean over the matrix (fraction); higher = more synergy
parameter measured: Bliss excess

molecule	parameter measured	result
C[C@@H]1COCCN1c1cc(C2([S@](C)(=N)=O)CC2)nc(-c2ccnc3[nH]ccc23)n1 [AZD6738] + O=C(c1cc(Cc2n[nH]c(=O)c3ccccc23)ccc1F)N1CCN(C(=O)C2CC2)CC1 [Olaparib] (first compound max 10 µM, 7x7, partner max 10 µM)	Bliss excess	-0.0328
CC1(C)CCC(CN2CCN(c3ccc(C(=O)NS(=O)(=O)c4ccc(NCC5CCOCC5)c([N+](=O)[O-])c4)c(Oc4cnc5[nH]ccc5c4)c3)CC2)=C(c2ccc(Cl)cc2)C1 [Venetoclax] + C[C@@H]1COCCN1C2=NC(=NC(=C2)C3(CC3)[S@](=N)(=O)C)C4=C5C=CNC5=NC=C4 [AZD6738] (first compound max 1 µM, 7x7, partner max 10 µM)	Bliss excess	-0.0906
C=CCn1c(=O)c2cnc(Nc3ccc(N4CCN(C)CC4)cc3)nc2n1-c1cccc(C(C)(C)O)n1 [AZD1775] + Nc1ccn([C@@H]2O[C@H](CO)[C@@H](O)C2(F)F)c(=O)n1 [Gemcitabine] (first compound max 1 µM, partner max 0.3 µM)	Bliss excess	-0.0105
N#Cc1cnc(Nc2cc(NC[C@H]3CNCCO3)c(C(F)(F)F)cn2)cn1 [SRA737] + C=CCn1c(=O)c2cnc(Nc3ccc(N4CCN(C)CC4)cc3)nc2n1-c1cccc(C(C)(C)O)n1 [AZD1775] (first compound max 10 µM, partner max 1 µM)	Bliss excess	0.155
CN(CCO)CC[C@H](CSc1ccccc1)Nc1ccc(S(=O)(=O)NC(=O)c2ccc(N3CCC([C@@H](O)c4ccccc4-c4ccc(Cl)cc4)CC3)cc2)cc1S(=O)(=O)C(F)(F)F [AZD4320] + CN(C)CCCOc1ccc(-c2ccc3ncc4c(c3c2)n(C2CCOCC2)c(=O)n4C)cn1 [AZD0156] (first compound max 1 µM, 7x7, partner max 1 µM)	Bliss excess	-0.0809
CN(CCO)CC[C@H](CSc1ccccc1)Nc1ccc(S(=O)(=O)NC(=O)c2ccc(N3CCC([C@@H](O)c4ccccc4-c4ccc(Cl)cc4)CC3)cc2)cc1S(=O)(=O)C(F)(F)F [AZD4320] + C1CN(CCC1(C(=O)N[C@@H](CCO)C2=CC=C(C=C2)Cl)N)C3=NC=NC4=C3C=CN4 [Capivasertib] (first compound max 1 µM, 7x7, partner max 3 µM)	Bliss excess	-0.0793
